- assayed.system: T1, human recombinant GIP receptor (human, UniProt P48546 22-466)
- T1 construct: whole, on cells; Assayed as washed membranes of CHO-K1 cells expressing the receptor; also called hGIP receptor
- T1 sequence (looked up): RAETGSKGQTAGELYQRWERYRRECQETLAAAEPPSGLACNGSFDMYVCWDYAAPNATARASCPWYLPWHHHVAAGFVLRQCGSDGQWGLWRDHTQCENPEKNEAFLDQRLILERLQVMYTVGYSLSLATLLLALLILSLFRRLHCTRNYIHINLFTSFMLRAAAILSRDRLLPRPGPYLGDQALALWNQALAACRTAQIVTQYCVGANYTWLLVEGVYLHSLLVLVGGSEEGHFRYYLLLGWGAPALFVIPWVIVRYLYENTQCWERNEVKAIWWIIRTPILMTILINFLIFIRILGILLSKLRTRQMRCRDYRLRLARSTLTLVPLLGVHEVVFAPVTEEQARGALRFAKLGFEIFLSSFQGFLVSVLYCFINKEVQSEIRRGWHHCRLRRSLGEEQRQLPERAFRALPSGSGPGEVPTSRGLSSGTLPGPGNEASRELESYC
- assay.explanation: displacement of [125I]GIP, membranes of CHO-K1 cells expressing human GIP receptor
recorded.endpoint: pKi
In textbook form, pKi equals minus log to base ten of the concentration in mol/L.

Illustrative cases are given below, each with its answer.
INSERT INTO assay_data (binder, measured_result) VALUES
  ('XXEGTFXSDYSIAXDKIHQQDFVNWLLAQK (4Hppa (3-(4-hydroxyphenyl)propionic acid) at 1; Aib at 2; A5c at 7; Nle at 14; C-terminal amide) [(4Hppa^1, Aib^2, A5c^7, Nle^14)hGIP(1-30)-NH2]', 7.90),
  ('XXEGTFISDYXIAMDKIHQQDFVNWLLAQKGKKNDWKHNITQH (7HO-Tic at 1; Aib at 2; A5c at 11) [(7HO-Tic^1, Aib^2, A5c^11, His^43)hGIP(1-43)-OH]', 8.32),
  ('XXEGTFISDYXIAXDKIHQQDFVNWLLAQKGKKNDWKHNITQH (3MeO-Tyr at 1; Aib at 2; A5c at 11 and 14) [(3MeO-Tyr^1, Aib^2, A5c^11, 14, His^43)hGIP(1-43)-OH]', 8.03),
  ('FXEGTFISDYXIAMDKIHQQDFVNWLLAQKGKKNDWKHNITQH (4Me-Phe at 1; Aib at 2; A5c at 11) [(4Me-Phe^1, Aib^2, A5c^11, His^43)hGIP(1-43)-OH]', 8.04),
  ('YXEGTFISDYXIAMDKIHQQDFVNWLLAQKGKKNDWKHNIXQ (3OH-Tyr at 1; Aib at 2; A5c at 11 and 41) [(3OH-Tyr^1, Aib^2, A5c^11, 41)hGIP(1-42)-OH]', 8.17);

# get_value(readout='pKi', item= YXEGTFISDYXIAXDKIHQQDFVNWLLAQKGKKNDWKHNITQH (3Cl-Tyr at 1; Aib at 2; A5c at 11 and 14) [(3Cl-Tyr^1, Aib^2, A5c^11, 14, His^43)hGIP(1-43)-OH] )
9.11
